assay.remarks: A CellTox Green Cytotoxicity Assay to monitor cytotoxicity in HEK293 cells - 8 hour (AID 1224884); further: on the % scale 0 is the no-effect control and ±100 the full control effect; nearly all actives have a fitted effect of over 35% in size
condition.summary: CellTox Green fluorescence; series mostly up to 76.8 µM
Results filed as inconclusive are left out. Calls of active or inactive are those of the source. The call rests on the fitted dose curve; in most records, active means well fitted activation curve with a large enough effect in the repeat runs; inconclusive means weak or mixed curves; inactive means flat fitted curve, though single readings scatter.
observation.type: cytotoxicity increase

A selection of reference data follows.
[
  {
    "compound": "O=P(O)(O)C(O)(Cc1cccnc1)P(=O)(O)O",
    "cytotoxicity increase": "inactive"
  },
  {
    "compound": "CC(C)OC(=O)C(C(=O)OC(C)C)=C1SC=CS1",
    "cytotoxicity increase": "inactive"
  },
  {
    "compound": "CCCCN1C(=O)c2ccccc2C1=O",
    "cytotoxicity increase": "inactive"
  },
  {
    "compound": "N=C(N)N1CCc2ccccc2C1",
    "cytotoxicity increase": "-15.6% [at 6.97 µM] (inactive)"
  }
]

Would you kindly look at the next entry?
Which value of cytotoxicity increase has been reported for Clc1ccc2c(c1)Nc1ccccc1S2 in the records? inactive
